# pIC50 listing for each entry below
- Test target: KRAS-G12V (Homo sapiens, UniProt P01116, G12V)
- Sequence (P01116 with tags, fused parts or gaps isoform P01116-2 G12V): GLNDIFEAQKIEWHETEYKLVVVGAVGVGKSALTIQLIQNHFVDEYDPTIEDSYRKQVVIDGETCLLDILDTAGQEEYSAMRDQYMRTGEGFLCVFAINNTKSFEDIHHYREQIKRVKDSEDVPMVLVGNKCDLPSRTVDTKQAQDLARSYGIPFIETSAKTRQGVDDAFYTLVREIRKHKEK
- Protocol: SOS-catalyzed nucleotide exchange assay (Procedure A, TR-FRET), KRAS-G12V
- Format: biochemical
- Setup conditions: nucleotide exchange, read-out: KRAS G12V GNE IC50
The quantity pIC50 is defined as the negative base-10 logarithm of the molar concentration.

Examples with answers:
{"columns": ["Compound", "pIC50"],
 "data": [
  ["Cc1cc2[nH]ncc2c(-c2nccc3c2sc2nc(OC[C@@]45CCCN4C[C@H](F)C5)nc(N4CCOC[C@@](C)(O)C4)c23)c1SC(F)(F)F", 6.82],
  ["C[C@@]1(O)COCCN(c2nc(OC[C@@]34CCCN3C[C@H](F)C4)nc3sc4c(-c5c(-c6ccoc6)c(Cl)cc6[nH]ncc56)nccc4c23)C1", 7.94]
]}

Turning now to a further record.
Test item Cn1c2nc(OC[C@@]34CCCN3C[C@H](F)C4)nc(N3CCOC[C@@](C)(O)C3)c2c2ccnc(-c3c(C4(F)CC4)c(Cl)cc4[nH]ncc34)c21 (single isomer, unassigned) ; KRAS-G12V (Homo sapiens, UniProt P01116, G12V); reported pIC50 was 7.81
